These measurements were taken from the kinase profiling compilation of Christmann-Franck et al. (2016).

Target: MAP4K5 (human)
Experiment: radiometric filter-binding kinase assay, Kinase HotSpot
Details: compound 0.5 µM; ATP 10 µM
Returns: string. Value is Fulfilled if measured residual activity is below 50%, and Not fulfilled if it is greater than or equal to it.

Check out these entries, answers already filled in.
CCCNC(=O)Nc1ccc(Oc2ncnc3cc(OC)c(OC)cc23)cc1Cl ... Not fulfilled
O=C(Nc1ccc(Cl)cc1)c1ccccc1NCc1ccncc1 ... Not fulfilled
Nc1nc(Nc2ccc(S(N)(=O)=O)cc2)nn1C(=S)Nc1c(F)cccc1F ... Fulfilled
COc1cc2nccc(Oc3ccc(NC(=S)NC(=O)c4ccccc4C)cc3)c2cc1OC ... Fulfilled
Nc1nc(Nc2ccc(S(N)(=O)=O)cc2)nn1C(=O)c1c(F)cccc1F ... Fulfilled
Clc1ccc(Nc2nnc(Cc3ccncc3)c3ccccc23)cc1 ... Not fulfilled
COc1ccc(-c2cnc3c(-c4ccsc4)cnn3c2)cc1 ... Not fulfilled
Cc1cc2ncc(-c3ccccc3)nc2cc1C ... Not fulfilled

Consider the record given below.
Confirm or reject: residual activity of CCN1/C(=C/C(C)=O)Sc2ccc(OC)cc21 lies strictly below 50%
Not fulfilled
